assay-method-text: Plasma concentrations during 24-hour continuous intravenous infusion
Assay type: in vivo, Sprague-Dawley rats
particulars: female, Sprague-Dawley, rat, plasma, iv, 10 mg/kg, female Sprague-Dawley rats; 24-hour intravenous infusion at 10 mg/kg; time 4 h; read-out: Plasma concentration, individual animal
experimental-endpoint: concentration at 4 h (ng/mL)
Numbers only, in ng/mL.

Query `O=C(O)c1cc(-c2ccc(C3CCNCC3)cc2)c2ccc(-c3ccc(C(F)(F)F)cc3)cc2c1` yields concentration at 4 h of 445

###

assay-method-text: Plasma concentrations and TK parameters, 72-hour continuous intravenous infusion
Type: in vivo, Sprague-Dawley rats
particulars: male, Sprague-Dawley, rat, plasma, iv, 30 mg/kg/day, male Sprague-Dawley rats; 72-hour intravenous infusion at 30 mg/kg/day; time 96 h; read-out: Plasma concentration, individual animal
experimental-endpoint: concentration at 96 h (ng/mL)
Numbers only, in ng/mL.

Query `O=C(O)c1cc(-c2ccc(C3CCNCC3)cc2)c2ccc(-c3ccc(C(F)(F)F)cc3)cc2c1` yields concentration at 96 h of 139
